assay: LAP4-GFP expression modulators in yeast, confirmation, cell-based, cherry picks, flow cytometry, mother/daughter gates (AID 2271);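 also: ratio of sample to DMSO plate mean so 100% equals DMSO level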; conditions: S. cerevisiae LAP4-GFP strain, 3 h, measured here: mother cell gate response, at 10 µM, stronger effect = higher value, 100 means same as DMSO control
assay endpoint: GFP response relative to DMSO (%)
One number for each entry, in %.

Some molecules with recorded GFP response relative to DMSO:
CC(=O)c1ccc(N2CCN(C(=O)c3ccc(Br)cc3)CC2)c(F)c1 ... 160
Cn1nnnc1N=N/C(=N/Nc1ccccc1)c1ccccc1 ... 115
COc1ccc(CCN2C(=O)c3cccc4cccc(c34)C2=O)cc1OC ... 97.3
COc1ccc(-c2noc(-c3cccc(Cl)c3)n2)cc1OC ... 101
O=C1c2cccc3c(N4CCCCC4)ccc(c23)C(=O)N1CCO ... 98.4

I would be grateful if you could provide GFP response relative to DMSO for each of the following entries.
1. COc1ccc(C(=O)NC(=S)Nc2ccc(CN3CCOCC3)cc2)cc1
2. COc1cccc2cc(C(=O)N3CCN(C/C=C/c4ccccc4)CC3)c(=O)oc12
3. COc1ccc(OC)c(C2CC(c3c(-c4ccccc4)c4cc(Cl)ccc4[nH]c3=O)=NN2S(C)(=O)=O)c1 (configuration not stated)
4. O=C(Nc1nnc(-c2ccccc2Cl)o1)c1ccc(S(=O)(=O)N2CCCCCC2)cc1

[A]
[99.4, 98.4, 97.2, 96.2]

I would be grateful if you could provide GFP response relative to DMSO for each of the following entries.
1. CCC(Sc1nc(=O)cc(N)n1-c1ccccc1)C(=O)Nc1cc(C)on1 (configuration not stated)
2. CC(=O)Oc1ccc(N2C(=O)C3C4C=CC(O4)C3C2=O)cc1 (configuration not stated)
3. COc1ccc(NC(=O)CCN2CCN(S(=O)(=O)c3cc(Cl)ccc3OC)CC2)cc1
4. COc1ccc(C(=O)NNC(=S)NC(=O)/C=C/c2cccs2)cc1

[A]
1. 96.5
2. 101
3. 96.2
4. 198

I would be grateful if you could provide GFP response relative to DMSO for each of the following entries.
1. CCOc1cc(/C=N/Nc2nc(C)cc(=O)[nH]2)ccc1O
2. Cc1cc(N)n2ncc(-c3ccccc3)c2n1
3. CSc1ccc(/C=N/NC(=O)c2ccc(O)cc2)cc1

[A]
1. 90.1
2. 106
3. 96.2
